TESTED_ON: Gal6S(b1-3)GlcNAc
ASSAY_REMARKS: glycan array binding signal (z-score within array); higher = stronger binding
CONDITION_SUMMARY: glycan notation: IUPAC condensed, linker removed
The sample as a whole holds a higher share of the strongest signals than the screen did.
PROPERTY_NAME: glycan array binding signal (z-score)

BINDER	PROPERTY_NAME	TEST_RESULT
Erv46-EDTA (Saccharomyces cerevisiae), P39727 (protein) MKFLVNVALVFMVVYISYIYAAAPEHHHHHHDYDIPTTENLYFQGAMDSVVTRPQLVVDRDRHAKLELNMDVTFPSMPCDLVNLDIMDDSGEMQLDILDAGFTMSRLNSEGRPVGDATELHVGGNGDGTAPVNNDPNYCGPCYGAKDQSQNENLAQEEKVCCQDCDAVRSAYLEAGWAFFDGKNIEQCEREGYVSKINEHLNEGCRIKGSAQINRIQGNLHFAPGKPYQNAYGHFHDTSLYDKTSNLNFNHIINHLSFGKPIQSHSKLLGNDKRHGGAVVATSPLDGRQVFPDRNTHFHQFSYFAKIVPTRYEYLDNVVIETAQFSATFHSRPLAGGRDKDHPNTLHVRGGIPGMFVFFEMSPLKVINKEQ	glycan array binding signal (z-score)	-0.805
